# Assay explanation: Acute oral toxicity in KM mouse measured for 24 hrs by OCED guideline method
# Assay conditions: in vivo
Assay metric: LD50 at 24 h

Looking up `CC(C)CCOc1ccc(-c2ncc(C(=O)O)c(=N)[nH]2)cc1C#N` , I found its LD50 at 24 h recorded as > 2000 mg/kg

###

Entries with their measured pIC50, system Xanthine dehydrogenase/oxidase (Bos taurus, UniProt P80457):
Lab note: report pIC50 as minus log10 of the concentration in molar units, number only.

Measured pIC50, `N#Cc1cc(-c2ncc(C(=O)O)c(=O)[nH]2)ccc1OCc1ccc(Cl)cc1` : 7.30

GET /value?item= `CC(C)CCOc1ccc(-c2ncc(C(=O)O)c(=O)[nH]2)cc1C#N` &field=pIC50 returns 7.60

Sure, the documented pIC50 for `N#Cc1cc(-c2ncc(C(=O)O)c(=O)[nH]2)ccc1OCc1ccc(F)cc1` is 7.42

// pIC50 value for `N#Cc1cc(-c2ncc(C(=O)O)c(=O)[nH]2)ccc1OCc1ccccc1` : 7.41
